- Test Description: amyloid nucleation score (Sup35N fusion, yeast selection) (log enrichment); library NNK1; higher = more nucleation; inactive = no reads after selection;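 note: zero at mode of non-aggregating sequences after 7 days selection at 30°C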
So basically: amyloid nucleation score at 0.2 or higher? That is true. Lower than 0.2? That is false.

INPUT: Kindly determine if amyloid nucleation score recorded for GYPWVV is above or exactly 0.2.
OUTPUT: true

INPUT: # iterate: SSNWFPR
OUTPUT: false

INPUT: # iterate: ISINQIMFAKGPYFERLAEN
OUTPUT: true

INPUT: # iterate: LDYLTTRKANVHRGCVALML
OUTPUT: false

INPUT: # iterate: NRHEILHIVG
OUTPUT: true

INPUT: # iterate: RLCPTVRVQRLMFFPVCPGP
OUTPUT: false

INPUT: # iterate: NMEITYLSVFVAVYVHLHFF
OUTPUT: false

INPUT: # iterate: YDVLEDSHELMMCFCVRGHW
OUTPUT: false

INPUT: # iterate: SYDRNDFLGERSVGMH
OUTPUT: true

INPUT: # iterate: GWNHWADTSGTLGK
OUTPUT: true

INPUT: # iterate: GWYFYG
OUTPUT: true

INPUT: # iterate: ESDPGCPVAVIKGPCT
OUTPUT: true

###

- Test Description: amyloid nucleation score (Sup35N fusion, yeast selection) (log enrichment); library NNK1; higher = more nucleation; inactive = no reads after selection
Measurement Kind: amyloid nucleation score

As a guide, the following entries are already answered.
substance=ILTRRSLLRLWIIISDKSFR measurement_kind="amyloid nucleation score" result=-0.695
substance=VFGSCWYLYFVYLPTNRFRM measurement_kind="amyloid nucleation score" result=-0.134
substance=QGLAGHLSRRYFY measurement_kind="amyloid nucleation score" result=-1.96
substance=IGSFGNRYRVPMRTASGYNM measurement_kind="amyloid nucleation score" result=0.623
substance=VCLVVEIG measurement_kind="amyloid nucleation score" result=1.04
substance=VSANICNRIVDGHFSLFYLN measurement_kind="amyloid nucleation score" result=-0.73

INPUT: # input substance: YMCTLRGGGSDCTWAYPKWG ; wanted: its amyloid nucleation score
OUTPUT: 0.275

INPUT: # iterate: LAPALRTETQICRRIHSVQL
OUTPUT: 1.62

INPUT: # iterate: DSVNRLLSCPINKMLWSNYS
OUTPUT: 0.233

INPUT: # iterate: SLIRIVSS
OUTPUT: 0.372

###

- Test Description: amyloid nucleation score (Sup35N fusion, yeast selection) (log enrichment); library NNK2; higher = more nucleation; inactive = no reads after selection
Measurement Kind: amyloid nucleation score

As a guide, the following entries are already answered.
input_sequence=GCSNVCERGS measurement_kind="amyloid nucleation score" result=inactive
input_sequence=ILRCICRNILSSSRVRCSYH measurement_kind="amyloid nucleation score" result=inactive
input_sequence=VRCEESWGDIICD measurement_kind="amyloid nucleation score" result=inactive
input_sequence=DTLFNCFSCIVKLMSYIKSL measurement_kind="amyloid nucleation score" result=inactive
input_sequence=FLFVNDVGRE measurement_kind="amyloid nucleation score" result=inactive
input_sequence=FGLLLWYLCFSHIG measurement_kind="amyloid nucleation score" result=inactive
input_sequence=QMIFGYQHRAALDIMNGVPD measurement_kind="amyloid nucleation score" result=inactive

Now let's try a different one.
INPUT: # input sequence: NFIKKGCGKGNLDLFSLRDV ; wanted: its amyloid nucleation score
OUTPUT: inactive

Cited source: the supplement of paper PMC12042874
